Test system: 276233-004-R-J1-PDC complex spheroid viability;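 also: spheroids exposed to drugs for seven days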
Assay: Anticancer human tumor 276233-004-R-J1-PDC patient-derived colon adenocarcinoma cell line growth inhibition [GQUAD]
Conditions: curve of first compound; second compound 1 µM
Text: DNA G-quadruplex Stabilizer Agents in Combinations in Complex Spheroids A high-throughput screen of multi-cell type tumor spheroids was designed to identify active combinations of DNA G-quadruplex stabilizer agents and targeted small molecules. […] Compounds. […] If the clinical Cmax for an agent had not been determined, the highest concentration tested was 10 microM. […]
pIC50: −log10 of the molar value.

# COMPOUND, pIC50
measured = [
    ("O=C(c1cc(Cc2n[nH]c(=O)c3ccccc23)ccc1F)N1CCN(C(=O)C2CC2)CC1 + CN(C)c1ccc(Nc2c3ccc(NC(=O)CCN4CCCC4)cc3nc3cc(NC(=O)CCN4CCCC4)ccc23)cc1", "< 5.00"),
    ("C=CCn1c(=O)c2cnc(Nc3ccc(N4CCN(C)CC4)cc3)nc2n1-c1cccc(C(C)(C)O)n1 + Cc1cnc(CNC(=O)c2c(=O)c3ccc(N4CCCN(C)CC4)nc3n3c2sc2ccccc23)cn1", "< 5.00"),
    ("C=CC(=O)N1CCN(c2nc(=O)n(-c3c(C)ccnc3C(C)C)c3nc(-c4c(O)cccc4F)c(F)cc23)C(C)C1 (stereo not drawn) + Cc1cnc(CNC(=O)c2c(=O)c3ccc(N4CCCN(C)CC4)nc3n3c2sc2ccccc23)cn1", "< 5.00"),
]

Each recorded value in this set is attributed to PubChem BioAssay AID2060496.
